- test details: self-splicing fitness, log relative to wild type (ln ratio); higher = more splicing; Tetrahymena group I intron in knt gene, E. coli kanamycin selection, DiMSum; sequences stand for … in CUCUCU…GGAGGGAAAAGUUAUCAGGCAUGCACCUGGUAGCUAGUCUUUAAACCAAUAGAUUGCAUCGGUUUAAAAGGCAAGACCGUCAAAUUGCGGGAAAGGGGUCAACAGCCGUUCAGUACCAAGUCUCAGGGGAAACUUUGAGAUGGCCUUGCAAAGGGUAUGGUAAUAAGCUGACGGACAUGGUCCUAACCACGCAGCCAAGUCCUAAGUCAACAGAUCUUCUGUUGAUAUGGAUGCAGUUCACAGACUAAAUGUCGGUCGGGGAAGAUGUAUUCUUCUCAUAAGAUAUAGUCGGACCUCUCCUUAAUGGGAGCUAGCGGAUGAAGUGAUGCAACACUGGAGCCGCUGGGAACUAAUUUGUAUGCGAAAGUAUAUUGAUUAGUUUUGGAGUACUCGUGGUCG;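 note: selection with 25 µg/mL kanamycin versus none on LB agar overnight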
- test settings: 30 °C
readout label: self-splicing fitness (ln)

sequence entry: GACAAGCAAUAUUACGCGAU
readout label: self-splicing fitness (ln)
value: -2.96
--
sequence entry: CGUAAGCAAUAUUACGGGGU
readout label: self-splicing fitness (ln)
value: -3.79
--
sequence entry: CAACAGCAAUAUUACGCGCU
readout label: self-splicing fitness (ln)
value: -3.18
--
sequence entry: CCCUAGCAAUAUUACGCUGA
readout label: self-splicing fitness (ln)
value: -3.14
--
sequence entry: CGGCAGCAAUAUUACGCCCU
readout label: self-splicing fitness (ln)
value: -1.01
--
sequence entry: UAAAAGCAAUAUUACGAGCA
readout label: self-splicing fitness (ln)
value: -0.549

###

- test details: self-splicing fitness, log relative to wild type (ln ratio); higher = more splicing; Tetrahymena group I intron in knt gene, E. coli kanamycin selection, DiMSum; sequences stand for … in CUCUCU…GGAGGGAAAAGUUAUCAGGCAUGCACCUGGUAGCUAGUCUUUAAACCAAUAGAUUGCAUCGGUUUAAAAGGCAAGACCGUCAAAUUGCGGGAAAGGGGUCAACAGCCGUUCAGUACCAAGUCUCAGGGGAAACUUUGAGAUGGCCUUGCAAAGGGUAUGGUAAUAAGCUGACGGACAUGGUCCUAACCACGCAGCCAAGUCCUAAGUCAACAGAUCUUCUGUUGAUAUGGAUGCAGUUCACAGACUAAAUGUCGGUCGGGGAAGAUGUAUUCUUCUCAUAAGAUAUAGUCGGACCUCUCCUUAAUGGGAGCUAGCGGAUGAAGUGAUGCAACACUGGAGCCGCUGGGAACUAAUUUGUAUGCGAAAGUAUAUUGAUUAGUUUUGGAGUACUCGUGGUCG
- test settings: 37 °C
readout label: self-splicing fitness (ln)

sequence entry: CUGUAGCAAUAUUACGACUA
value: -0.817

sequence entry: UCGAAGCAAUAUUACGCGUG
value: -0.256

sequence entry: AGUGAGCAAUAUUACGUCGA
value: -2

sequence entry: UUGCAGCAAUAUUACGGAUA
value: -1.12

sequence entry: AUUUAGCAAUAUUACGCCGU
value: -1.44

sequence entry: UUGUAGCAAUAUUACGUCAG
value: -0.45

sequence entry: AGCCAGCAAUAUUACGGACU
value: -0.917

sequence entry: UGAAAGCAAUAUUACGGGCU
value: -1.97

sequence entry: AGACAGCAAUAUUACGAUUU
value: 0.119

sequence entry: CACCAGCAAUAUUACGGAUC
value: -1.32

sequence entry: CAUCAGCAAUAUUACGUCAG
value: 0.43

sequence entry: GGGUAGCAAUAUUACGCAUA
value: -0.676

sequence entry: AGCUAGCAAUAUUACGAGGA
value: -2.42

sequence entry: GCAGAGCAAUAUUACGCCGU
value: -2.65

sequence entry: UGAGAGCAAUAUUACGUUGC
value: -1.06

sequence entry: UUAUAGCAAUAUUACGCAAC
value: -1.6

sequence entry: ACUCAGCAAUAUUACGGCCG
value: -0.609

sequence entry: GUCGAGCAAUAUUACGGUCA
value: -0.499

sequence entry: UUGAAGCAAUAUUACGAACU
value: 0.568

sequence entry: UGUAAGCAAUAUUACGUAAA
value: -1.02

sequence entry: CGACAGCAAUAUUACGAGGU
value: -1.73

###

- test details: self-splicing fitness, log relative to wild type (ln ratio); higher = more splicing; Tetrahymena group I intron in knt gene, E. coli kanamycin selection, DiMSum; sequences stand for … in CUCUCU…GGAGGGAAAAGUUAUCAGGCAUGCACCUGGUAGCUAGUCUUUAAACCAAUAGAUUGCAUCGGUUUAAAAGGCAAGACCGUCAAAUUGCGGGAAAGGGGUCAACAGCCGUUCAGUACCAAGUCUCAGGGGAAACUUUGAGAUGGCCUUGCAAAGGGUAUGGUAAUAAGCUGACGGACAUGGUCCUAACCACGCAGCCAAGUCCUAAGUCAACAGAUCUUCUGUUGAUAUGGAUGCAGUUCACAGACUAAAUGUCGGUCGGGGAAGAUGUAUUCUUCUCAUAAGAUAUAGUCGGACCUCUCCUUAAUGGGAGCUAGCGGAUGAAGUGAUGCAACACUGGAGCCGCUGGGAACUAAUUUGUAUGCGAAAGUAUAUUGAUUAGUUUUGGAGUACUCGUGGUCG
- test settings: 37 °C
In this section, each of the sequences is paired with its reported self-splicing fitness (ln).

sequence entry: AUCUAGCAAUAUUACGGUCA
self-splicing fitness (ln): -0.841
//
sequence entry: ACACAGCAAUAUUACGGGGC
self-splicing fitness (ln): -3.16
//
sequence entry: CCUUAGCAAUAUUACGGGAU
self-splicing fitness (ln): -2.68
//
sequence entry: UAUUAGCAAUAUUACGGAGU
self-splicing fitness (ln): -2.01
//
sequence entry: GCCCAGCAAUAUUACGUUCC
self-splicing fitness (ln): -0.603
//
sequence entry: GAAAAGCAAUAUUACGGAUA
self-splicing fitness (ln): -1.18
//
sequence entry: CACCAGCAAUAUUACGUCGU
self-splicing fitness (ln): -1.83
//
sequence entry: CUGAAGCAAUAUUACGGUCC
self-splicing fitness (ln): -2.38
//
sequence entry: UCUCAGCAAUAUUACGUAGG
self-splicing fitness (ln): -0.133
//
sequence entry: CUGCAGCAAUAUUACGGCAG
self-splicing fitness (ln): -2.27

###

- test details: self-splicing fitness, log relative to wild type (ln ratio); higher = more splicing; Tetrahymena group I intron in knt gene, E. coli kanamycin selection, DiMSum; sequences stand for … in CUCUCU…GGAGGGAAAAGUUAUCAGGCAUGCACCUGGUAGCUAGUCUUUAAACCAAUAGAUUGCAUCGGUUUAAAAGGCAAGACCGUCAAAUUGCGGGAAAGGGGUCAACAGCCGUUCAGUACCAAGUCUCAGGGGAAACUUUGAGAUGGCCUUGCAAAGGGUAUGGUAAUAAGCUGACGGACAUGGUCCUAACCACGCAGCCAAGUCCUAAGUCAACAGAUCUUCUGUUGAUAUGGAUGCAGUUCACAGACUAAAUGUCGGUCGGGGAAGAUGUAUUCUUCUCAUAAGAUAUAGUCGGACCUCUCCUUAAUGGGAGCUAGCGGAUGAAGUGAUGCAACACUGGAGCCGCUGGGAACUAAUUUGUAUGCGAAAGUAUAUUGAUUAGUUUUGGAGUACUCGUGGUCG
- test settings: 37 °C
In this section, each of the sequences is paired with its reported self-splicing fitness (ln).

sequence entry: UGGCAGCAAUAUUACGUCUG
self-splicing fitness (ln): -0.936

sequence entry: GACUAGCAAUAUUACGGCAU
self-splicing fitness (ln): 0.291

sequence entry: CUCCAGCAAUAUUACGGGAG
self-splicing fitness (ln): -1.91

sequence entry: UGUCAGCAAUAUUACGAACA
self-splicing fitness (ln): 0.521

sequence entry: AGCCAGCAAUAUUACGCCGC
self-splicing fitness (ln): -3.25

###

- test details: self-splicing fitness, log relative to wild type (ln ratio); higher = more splicing; Tetrahymena group I intron in knt gene, E. coli kanamycin selection, DiMSum; sequences stand for … in CUCUCU…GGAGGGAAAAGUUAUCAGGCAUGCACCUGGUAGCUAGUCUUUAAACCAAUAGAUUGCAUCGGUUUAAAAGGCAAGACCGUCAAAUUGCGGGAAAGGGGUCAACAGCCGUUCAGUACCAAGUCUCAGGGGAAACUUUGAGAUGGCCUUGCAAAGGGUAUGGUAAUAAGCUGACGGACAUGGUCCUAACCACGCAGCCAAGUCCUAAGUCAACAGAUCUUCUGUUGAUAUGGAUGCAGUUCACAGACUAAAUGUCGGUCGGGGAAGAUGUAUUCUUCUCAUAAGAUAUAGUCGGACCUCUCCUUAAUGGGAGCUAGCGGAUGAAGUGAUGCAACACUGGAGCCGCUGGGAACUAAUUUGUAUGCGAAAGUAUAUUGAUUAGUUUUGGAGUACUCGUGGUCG
- test settings: 37 °C
Classification field: T = self-splicing fitness (ln) at or over -1; F = self-splicing fitness (ln) under -1.

sequence entry: CUAGAGCAAUAUUACGCCAU
assigned label: F

sequence entry: UUCAAGCAAUAUUACGCUAU
assigned label: F

sequence entry: CGUCAGCAAUAUUACGGCGU
assigned label: T

sequence entry: UCCAAGCAAUAUUACGUACA
assigned label: T

sequence entry: CACCAGCAAUAUUACGGCUA
assigned label: T

sequence entry: ACAAAGCAAUAUUACGGUCA
assigned label: T

sequence entry: CUUAAGCAAUAUUACGACGA
assigned label: F

sequence entry: CUCGAGCAAUAUUACGUUGG
assigned label: F

sequence entry: CAGUAGCAAUAUUACGUCUC
assigned label: F

sequence entry: UUGCAGCAAUAUUACGACAC
assigned label: F

sequence entry: AACGAGCAAUAUUACGUGGA
assigned label: F

sequence entry: UCGCAGCAAUAUUACGGAUG
assigned label: F

sequence entry: AAGUAGCAAUAUUACGGUUC
assigned label: F

sequence entry: CUGAAGCAAUAUUACGUUUG
assigned label: F

sequence entry: GGGAAGCAAUAUUACGGGGU
assigned label: F

sequence entry: GUAAAGCAAUAUUACGUGAC
assigned label: T

sequence entry: CGCGAGCAAUAUUACGGUCC
assigned label: F

sequence entry: AGUCAGCAAUAUUACGGCCU
assigned label: T

sequence entry: UGGCAGCAAUAUUACGCCGA
assigned label: T

sequence entry: ACCUAGCAAUAUUACGCCUU
assigned label: T
